Tested on: WHIM30 (cells of a triple-negative basal-like breast cancer xenograft)
TEST DESCRIPTION: cell viability (% of vehicle); higher = less cytotoxic
ASSAY CONTEXT: 10 µM; 72 h
Items are presented alongside their recorded cell viability.
Just the number, please, no unit after it.

Recorded cell viability, per entry:
1. CNNCc1ccc(C(=O)NC(C)C)cc1.Cl [Procarbazine HCl] = 83.9
2. Cc1cc(C)nc(NS(=O)(=O)c2ccc(N)cc2)n1 = 132
3. CN(C)CCCOc1nn(Cc2ccccc2)c2ccccc12.Cl [Benzydamine HCl] = 123
4. CCCc1nn(C)c2c(=O)nc(-c3cc(S(=O)(=O)N4CCN(C)CC4)ccc3OCC)[nH]c12.O=C(O)CC(O)(CC(=O)O)C(=O)O [Sildenafil Citrate] = 53.9
5. Br.CN(C)CCC[C@]1(c2ccc(F)cc2)OCc2cc(C#N)ccc21 [Citalopram hydrobromide] = 87.9

Form field: reported cell viability of CCCCc1oc2ccccc2c1C(=O)c1cc(I)c(OCCN(CC)CC)c(I)c1.Cl [Amiodarone HCl]
83.1

Form field: reported cell viability of CO[C@H]1C[C@@H]2CC[C@@H](C)[C@@](O)(O2)C(=O)C(=O)N2CCCC[C@H]2C(=O)O[C@H]([C@H](C)C[C@@H]2CC[C@@H](O)[C@H](OC)C2)CC(=O)[C@H](C)/C=C(\C)[C@@H](O)[C@@H](OC)C(=O)[C@H](C)C[C@H](C)/C=C/C=C/C=C/1C [Rapamycin (Sirolimus)]
68.9

Form field: reported cell viability of NC(=O)N1c2ccccc2C=Cc2ccccc21 [Carbamazepine]
98.8

====

Items are presented alongside their recorded cell viability.
Test system: HCI16 (cells of a triple-negative basal-like breast cancer xenograft)
TEST DESCRIPTION: cell viability (% of vehicle); higher = less cytotoxic
ASSAY CONTEXT: 10 µM; 72 h
Just the number, please, no unit after it.

Recorded cell viability, per entry:
1) CC(=O)N(c1onc(C)c1C)S(=O)(=O)c1ccc(N)cc1 [Sulfisoxazole Acetyl] = 104
2) CCCCC1=NC2(CCCC2)C(=O)N1Cc1ccc(-c2ccccc2-c2nn[nH]n2)cc1 [Irbesartan] = 107
3) Cl.N#Cc1ccc2[nH]cc(CCCCN3CCN(c4ccc5oc(C(N)=O)cc5c4)CC3)c2c1 [Vilazodone Hydrochloride] = 166

Short answer please: cell viability, HCI16, entry Oc1ccc(OCc2ccccc2)cc1 [Monobenzone]
153

Short answer please: cell viability, HCI16, entry CCn1cc(C(=O)O)c(=O)c2cc(F)c(N3CCN(C)CC3)cc21.CS(=O)(=O)O [Pefloxacin Mesylate]
153

====

Items are presented alongside their recorded cell viability.
System: HCI09 (cells of a triple-negative luminal androgen receptor type breast cancer xenograft)
TEST DESCRIPTION: cell viability (% of vehicle); higher = less cytotoxic
ASSAY CONTEXT: 10 µM; 72 h

Recorded cell viability, per entry:
1. NC(=O)c1ccc(I)c([N+](=O)[O-])c1 [Iniparib (BSI-201)] = 123
2. CC1c2cccc(O)c2C(O)=C2C(=O)C3(O)C(O)=C(C(N)=O)C(=O)C(N(C)C)C3C(O)C21.Cl (centres undefined) [Doxycycline hyclate] = 94.8
3. COc1cc2nc(N3CCN(C(=O)c4ccco4)CC3)nc(N)c2cc1OC.Cl [Prazosin HCl] = 36.9
4. CC1(C)SC2C(NC(=O)C(N)c3ccccc3)C(=O)N2C1C(=O)[O-].[Na+] (centres undefined) [Ampicillin] = 104
5. Nc1ncn(C2CC(O)C(CO)O2)c(=O)n1 (centres undefined) = 96
6. CCCCCCCCCC(=O)NC(Cc1c[nH]c2ccccc12)C(=O)NC(CC(N)=O)C(=O)NC(CC(=O)O)C(=O)NC1C(=O)NCC(=O)NC(CCCN)C(=O)NC(CC(=O)O)C(=O)NC(C)C(=O)NC(CC(=O)O)C(=O)NCC(=O)NC(CO)C(=O)NC(C(C)CC(=O)O)C(=O)NC(CC(=O)c2ccccc2N)C(=O)OC1C (centres undefined) [Daptomycin] = 128
7. CCCC(NC(=O)C1C2CCCC2CN1C(=O)C(NC(=O)C(NC(=O)c1cnccn1)C1CCCCC1)C(C)(C)C)C(=O)C(=O)NC1CC1 (centres undefined) [Telaprevir (VX-950)] = 80.2
8. CO[C@H]1/C=C/O[C@@]2(C)Oc3c(C)c(O)c4c(O)c(c5c(nc6cc(C)ccn65)c4c3C2=O)NC(=O)/C(C)=C\C=C\[C@H](C)[C@H](O)[C@@H](C)[C@H](O)[C@@H](C)[C@H](OC(C)=O)[C@@H]1C [Rifaximin (Xifaxan)] = 114

// switching to the query compound
Form field: reported cell viability of Cc1cn(C2CC(O)C(CO)O2)c(=O)[nH]c1=O (centres undefined) [Telbivudine]
141

====

Items are presented alongside their recorded cell viability of combination.
Test system: HCI01 (cells of a triple-negative basal-like breast cancer xenograft)
TEST DESCRIPTION: cell viability of combination (% of vehicle); higher = less cytotoxic
ASSAY CONTEXT: 1 µM; 72 h; partner dose: 10 nM
Just the number, please, no unit after it.

Recorded cell viability of combination, per entry:
1. CN(C)c1ccc(C(=C2C=CC(=[N+](C)C)C=C2)c2ccc(N(C)C)cc2)cc1.[Cl-] [Crystal Violet] + CC(C)C[C@H](NC(=O)[C@H](CCc1ccccc1)NC(=O)CN1CCOCC1)C(=O)N[C@@H](Cc1ccccc1)C(=O)N[C@@H](CC(C)C)C(=O)[C@@]1(C)CO1 = 68
2. C1=C\COCc2cc(ccc2OCCN2CCCC2)Nc2nccc(n2)-c2cccc(c2)COC/1 [Pacritinib] + CC(C)C[C@H](NC(=O)[C@H](CCc1ccccc1)NC(=O)CN1CCOCC1)C(=O)N[C@@H](Cc1ccccc1)C(=O)N[C@@H](CC(C)C)C(=O)[C@@]1(C)CO1 = 58.2
3. COc1cccc2c1C(=O)c1c(O)c3c(c(O)c1C2=O)CC(O)(C(=O)CO)CC3OC1CC(N)C(O)C(C)O1 (stereo unspecified) [Doxorubicin] + CC(C)C[C@H](NC(=O)[C@H](CCc1ccccc1)NC(=O)CN1CCOCC1)C(=O)N[C@@H](Cc1ccccc1)C(=O)N[C@@H](CC(C)C)C(=O)[C@@]1(C)CO1 = 55.4
4. CN(C)CC=CC(=O)Nc1cc2c(Nc3ccc(F)c(Cl)c3)ncnc2cc1OC1CCOC1.O=C(O)C=CC(=O)O.O=C(O)C=CC(=O)O (stereo unspecified) [Afatinib dimaleate] + CC(C)C[C@H](NC(=O)[C@H](CCc1ccccc1)NC(=O)CN1CCOCC1)C(=O)N[C@@H](Cc1ccccc1)C(=O)N[C@@H](CC(C)C)C(=O)[C@@]1(C)CO1 = 86.1
5. Cc1ccc(-n2[nH]c(C)c(NN=C3C=CC=C(c4cccc(C(=O)O)c4)C3=O)c2=O)cc1C [Eltrombopag] + CC(C)C[C@H](NC(=O)[C@H](CCc1ccccc1)NC(=O)CN1CCOCC1)C(=O)N[C@@H](Cc1ccccc1)C(=O)N[C@@H](CC(C)C)C(=O)[C@@]1(C)CO1 = 74.8

// switching to the query compound
Form field: reported cell viability of combination of COc1cc(Nc2c(C#N)cnc3cc(OCCCN4CCN(C)CC4)c(OC)cc23)c(Cl)cc1Cl [Bosutinib (SKI-606)] + CC(C)C[C@H](NC(=O)[C@H](CCc1ccccc1)NC(=O)CN1CCOCC1)C(=O)N[C@@H](Cc1ccccc1)C(=O)N[C@@H](CC(C)C)C(=O)[C@@]1(C)CO1
70.1

====

Items are presented alongside their recorded cell viability.
Test system: HCI16
TEST DESCRIPTION: cell viability (% of vehicle); higher = less cytotoxic
ASSAY CONTEXT: 10 µM; 72 h
Just the number, please, no unit after it.

Recorded cell viability, per entry:
1. O=C(O)C=Cc1ccc(Cn2ccnc2)cc1 = 98.4
2. COc1cc(OC)c(C(=O)CCCN2CCCC2)c(OC)c1.Cl [Buflomedil HCl] = 122
3. CN(N=O)C(=O)NC1C(O)OC(CO)C(O)C1O (configuration not stated) = 113
4. CO/N=C(\C(=O)N[C@@H]1C(=O)N2C(C(=O)[O-])=C(COC(C)=O)CS[C@H]12)c1csc(N)n1.[Na+] [Cefotaxime (sodium salt)] = 107

Form field: reported cell viability of CC(C)(O)c1ccccc1CCC(SCC1(CC(=O)[O-])CC1)c1cccc(C=Cc2ccc3ccc(Cl)cc3n2)c1.[Na+] (configuration not stated) [Montelukast Sodium]
165

Form field: reported cell viability of OCC1OC(c2ccc(Cl)c(Cc3ccc(OC4CCOC4)cc3)c2)C(O)C(O)C1O (configuration not stated)
113

Form field: reported cell viability of CCC(C)n1ncn(-c2ccc(N3CCN(c4ccc(OCC5COC(Cn6cncn6)(c6ccc(Cl)cc6Cl)O5)cc4)CC3)cc2)c1=O (configuration not stated)
129

====

System: HCI03 (cells of an ER-positive luminal breast cancer xenograft)
TEST DESCRIPTION: cell viability (% of vehicle); higher = less cytotoxic
ASSAY CONTEXT: 10 µM; 72 h
ENDPOINT: cell viability

Recorded cell viability, per entry:
1. CCC(=O)NCCC1CCc2ccc3c(c21)CCO3 (centres undefined) = 113
2. O=C(CCCCCCNC(=O)c1cnc(N(c2ccccc2)c2ccccc2)nc1)NO = 108
3. Brc1c(NC2=NCCN2)ccc2nccnc12.O=C(O)C(O)C(O)C(=O)O [Brimonidine Tartrate] = 125

// switching to the query compound
Form field: reported cell viability of CN1CCC(=C2c3ccccc3CCc3sccc32)CC1.O=C(O)CC(O)C(=O)O [Pizotifen Malate]
105
